These data points were gathered from the METLIN SMRT retention time set (Domingo-Almenara et al. 2019).

Each entry below lists one item and its recorded RP-LC retention time value.
# test-protocol: gradient 5% acetonitrile 3 min, to 50% in 2 min, to 85% in 15 min, held 3 min, 100 µL/min
# assay-setup: column: Zorbax Extend-C18 2.1 x 50 mm; eluents: water / acetonitrile, 0.1% formic acid
measured-property: RP-LC retention time (s)

> print(dat)
                                   molecule     measured.property  readout.unit  value.reported
1  COc1ccc(C)cc1NC(=O)C1CCN(S(=O)(=O)c2cn(C(C)C)cn2)CC1  RP-LC retention time             s             810
2  CC12CC(NC(=O)N1c1cccc(C(=O)O)c1)c1ccccc1O2 (stereo unspecified)  RP-LC retention time             s             683
3  CCc1ccc(NC(=O)Nc2ccc(NC(=O)N3CCCC(C(=O)NC)C3)cc2)cc1 (stereo unspecified)  RP-LC retention time             s             730
4  Cc1ccc(NC(=O)C2CCN(c3cncnc3N3CCOCC3)CC2)cc1C  RP-LC retention time             s             670
5    Cn1cc(-c2ccncc2)cc1C(=O)NCc1ccc(Br)cc1  RP-LC retention time             s             662
6       COc1ccc(NC(=O)CCNc2cnc3cnccn23)cc1F  RP-LC retention time             s             589
